- measurement.target: T1, recombinant human IL-6 (human, UniProt P05231 30-212, limits assumed)
- T1 construct: also called rhIL6; human recombinant IL-6
- protocol.notes: competition ELISA, rhIL-6 in solution against captured IL-6
Kindly supply the reported IC50 values for the records listed here.
Answers are plain numbers, in nM.

{"columns": ["binder", "scale.unit", "IC50"],
 "data": [
  ["mAb 1340 (antibody, V domains shown) VH: QVTLKESGPTLVKPTQTLTLTCSFSGFSLSTSGVGVGWVRQPPGKALEWLAFIWWDDDKYYSPSLESRLTITKDTSKNQVVLTMTNMDPVDTATYYCARSADDYLYYSFDTWGQGTLVT VL: DIQMTQSPSSLSAFVGDGVTMTCWASQSINDYLNWYHQRPGEAPELLVFAASNLQIGVPSRFRGSGSETYFTLTINSLQPEDSGTYFCQNGWSFPLTFGGGTKLEI", "nM", 0.028]
]}

Q: Value lookup for IC50; key = mAb 201 (antibody, V domains shown) VH: QVTLKESGPALVKPTQTLTLTCTFSGFSLTTSGMCVSWIRQPPGKALEWLALIYWDDDKRYNPSLRSRLTITKDTSKNQVVLTMTNMDPVDTATYYCARSHDDYLYYALDYWGQGTLVT VL: DIQMTQSPSSLSAFVGDGVTMTCWASQSINDYLNWYHQRPGEAPELLVFAASNLQIGVPSRFRGSGSETYFTLTINSLQPEDSGTYFCQQTSSFPLTFGGGTKLE
A: 2
